// provenance: patent US20210300985A1

Target: HLA-DRB1*0701 (human)
Assay: competition binding; FIG. 35A
Parameter measured: IC50 (nM)

(P) ESNIMSTINGYVPES [SEQ ID NO: 5 (ESNIMSTINGYVPES)]
(Q) KIVFKNMASRPYSIY [SEQ ID NO: 3 (KIVFKNMASRPYSIY)]
Input: // select label with min value of measured IC50 from [ P , Q ] Return value: the label identifying the chosen record.
Output: P
